src = patent US20230265151A1

Tested On: human GLP-1 receptor (human, UniProt P43220 24-463)
Assay Explanation: cell-based or functional assay
*1 amine or outer side, *2 acyl side, *3 side chain or, on linkers, in order; H or OH if unused. Where no end group is shown, it is not given here. Side-chain parts run from the residue outwards. [ ]: non-standard residue; d: D form. The star is where a group is joined. Decanoyl(10-(4-HOOC-PhO)) = O=C(O)c1ccc(OCCCCCCCCCC(=O)*)cc1; αMePhe(2-F) = C[C@](N)(Cc1ccccc1F)C(=O)O; γGlu = O=C(O)[C@H](CCC(=O)[*:2])N[*:1]; αMeY = C[C@](N)(Cc1ccc(O)cc1)C(=O)O; αMeL = CC(C)C[C@](C)(N)C(=O)O; Orn = NCCC[C@H](N)C(=O)O; AEEA = NCCOCCOCC(=O)O; Aib = CC(C)(N)C(=O)O
Property Label: cAMP EC50 (1.0% HSA) (nM)

YXEGTXTSDKXIXLDXKAQXEXIXXLIEGGPSSGAPPPS (Y-Aib-EGT-αMeF(2F)-TSDK((2-[2-(2-Amino-ethoxy)-ethoxy]-acetyl)3-(γ-Glu)-CO-(CH2)10-CH3)-Aib-I-αMeL-LD-Orn-K((2-[2-(2-Amino-ethoxy)-ethoxy]-acetyl)3-(γ-Glu)-CO-(CH2)10-CH3)AQ-Aib-E-αMeF-I-(D-Glu)-αMeY-LIEGGPSSGAPPPS-NH2) [Example 436] ... 4.98
Y[Aib]EGT[αMePhe(2-F)]TSDV[Aib]I[αMeL]LD[Orn]K([AEEA-AEEA-γGlu-Decanoyl(10-(4-HOOC-PhO))])AQ[Aib]K([AEEA-AEEA-γGlu-Decanoyl(10-(4-HOOC-PhO))])FI[dE][αMeY]LI[Orn]GGPSSGAPPPS-NH2 [Example 410] ... 11
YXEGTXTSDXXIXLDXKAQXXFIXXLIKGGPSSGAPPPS (Y-Aib-EGT-αMeF(2F)-TSD-4Pal-Aib-I-αMeL-LD-Orn-K((2-[2-(2-Amino-ethoxy)-ethoxy]-acetyl)2-(γ-Glu)-CO-(CH2)10-CH3)AQ-Aib-Orn-FI-(D-Glu)-αMeY-LIK((2-[2-(2-Amino-ethoxy)-ethoxy]-acetyl)2-(γ-Glu)-CO-(CH2)10-CH3)GGPSSGAPPPS-NH2) [Example 414] ... 3.24
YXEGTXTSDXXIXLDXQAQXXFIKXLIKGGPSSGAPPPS (Y-Aib-EGT-αMeF(2F)-TSD-4Pal-Aib-I-αMeL-LD-Orn-QAQ-Aib-Orn-FIK(PEG5-(γ-Glu)-CO-(CH2)12-CO2H)-αMeY-LIK(PEG5-(γ-Glu)-CO-(CH2)12-CO2H)GGPSSGAPPPS-NH2) [Example 467] ... 2.87
YXEGTXTSDXXIXLDXKAQXKFIXXLIXGGPSSGAPPPS (Y-Aib-EGT-αMeF(2F)-TSD-4Pal-Aib-I-αMeL-LD-Orn-K((2-[2-(2-Amino-ethoxy)-ethoxy]-acetyl)2-(γ-Glu)-CO-(CH2)12-CO2H)AQ-Aib-K((2-[2-(2-Amino-ethoxy)-ethoxy]-acetyl)2-(γ-Glu)-CO-(CH2)12-CO2H)FI-(D-Glu)-αMeY-LI-Orn-GGPSSGAPPPS-NH2) [Example 406] ... 9.21
